Field IC50: reported value for Histone deacetylase 11 (Homo sapiens, UniProt Q96DB2); entries drawn from several documents.

Examples with their reported IC50 follow.
# given_smiles, IC50
data = [
    ("Nc1ccc(-c2cnn(Cc3ccc(-c4nnc(C(F)F)o4)cn3)c2)cn1", "> 30 µM"),
    ("O=C(NO)c1ccc(Cn2nnc(-c3ccccc3F)n2)cc1", "0.225 µM"),
    ("Cc1ccc(/C=C/CC(=O)Nc2ccc(C(=O)Nc3ccc(F)cc3N)nc2)cn1", "> 10 µM"),
    ("O=C(NO)c1ccc(CN(C(=O)N2CCOCC2)c2cccc(C(F)(F)F)c2)cc1", "8.42 µM"),
    ("Nc1nc2cc(-c3cn(Cc4ccc(-c5nnc(C(F)F)o5)cc4)nn3)ccc2[nH]1", "> 30 µM"),
]

Input: Complete the entry with IC50 for Nc1ccc(-c2cn(Cc3ccc(-c4nnc(C(F)F)o4)cn3)nn2)cn1
Output: > 30 µM

Input: Complete the entry with IC50 for Nc1ccc(-c2cn(Cc3ccc(-c4nnc(C(F)F)o4)cn3)cn2)cn1
Output: > 30 µM

Input: Complete the entry with IC50 for O=C(NO)c1ccc(Cn2nnc(-c3cccs3)n2)cc1
Output: 0.245 µM
